# System Under Test: antiserum As #128 (sheep polyclonal, raised to the alpha subunit of human inhibin, boosted with human recombinant 30-kDa inhibin)
# Assay Notes: RIA, competition with iodinated inhibin
Where no end group is shown, it is not given here. The star is where a group is joined. Biotin = O=C1N[C@H]2[C@H](CS[C@H]2CCCCC(=O)*)N1
Recorded ED50 for the following binders

Binder: Biotin-SGSGQPCCAALPGTMRPL (cysteine pairing not given here) [biotinylated peptide #26 (Set 1) of the human (alpha)C subunit]
Unit Descriptor: nM
ED50: 625

Binder: Biotin-SGSGALRLLQRPPEEPAA [biotinylated peptide #6 (Set 1) of the human (alpha)C subunit]
Unit Descriptor: nM
ED50: 1800

Binder: Biotin-SGSGGTMRPLHVRTTSDG [biotinylated peptide #28 (Set 1) of the human (alpha)C subunit]
Unit Descriptor: nM
ED50: 625

Binder: Biotin-SGSGTPAQPYSLLPGAQP [biotinylated peptide #23 (Set 1) of the human (alpha)C subunit]
Unit Descriptor: nM
ED50: 500

Binder: Biotin-SGSGHYCHGGCGLHIPPN (cysteine pairing not given here) [biotinylated peptide #17 (Set 1) of the human (alpha)C subunit]
Unit Descriptor: nM
ED50: 10000

Binder: Biotin-SGSGPEEPAAHANCHRVA [biotinylated peptide #8 (Set 1) of the human (alpha)C subunit]
Unit Descriptor: nM
ED50: 4800

Hey, just so you know, these numbers are from patent US20030162229A1.
